Tested on: 485368-065-R3-J5-PDC spheroids with HUVEC/MSC, viability
testSummary: Anticancer human tumor 485368-065-R3-J5-PDC patient-derived pancreatic carcinoma cell line growth inhibition [RAS]
experimentalSetup: second compound 1 µM; first compound 0.000949 µM; stronger effect = lower value
recordedEndpoint: viability, T/C (%)
Give the value, in units of %, as a plain number.

| molecule | systemName | viability, T/C / % |
| --- | --- | --- |
| CCc1c2c(nc3ccc(O)cc13)-c1cc3c(c(=O)n1C2)COC(=O)[C@]3(O)CC + C=CC(=O)N1CCN(c2nc(OCC3CCCN3C)nc3c(F)c(-c4nc(N)cc(C)c4C(F)(F)F)c(Cl)cc23)C(C)C1 | 485368-065-R3-J5-PDC spheroids with HUVEC/MSC, viability | 74.6 |

Problem: Field: viability, T/C (485368-065-R3-J5-PDC spheroids with HUVEC/MSC, viability). Entry: CC1(C)CCC(Nc2ncc(C(F)(F)F)c(-c3c[nH]c4c(P(C)(C)=O)c(C#N)ccc34)n2)CN1 (centres undefined) + C#Cc1c(F)ccc2cc(O)cc(-c3ncc4c(N5CC6CCC(C5)N6)nc(OCC56CCCN5CC(F)C6)nc4c3F)c12
Solution: 85.2

Problem: Same question for CC1(C)CCC(Nc2ncc(C(F)(F)F)c(-c3c[nH]c4c(P(C)(C)=O)c(C#N)ccc34)n2)CN1 (centres undefined) + C=CC(=O)N1CCN(c2nc(OCC3CCCN3C)nc3c(F)c(-c4nc(N)cc(C)c4C(F)(F)F)c(Cl)cc23)C(C)C1 please.
Solution: 87.1

Problem: Entry CCc1c2c(nc3ccc(O)cc13)-c1cc3c(c(=O)n1C2)COC(=O)[C@]3(O)CC + C#Cc1c(F)ccc2cc(O)cc(-c3ncc4c(N5CC6CCC(C5)N6)nc(OCC56CCCN5CC(F)C6)nc4c3F)c12 please
Solution: 91.2

###

Test system: 485368-065-R3-J5-PDC spheroids with HUVEC/MSC, viability
testSummary: Anticancer human tumor 485368-065-R3-J5-PDC cell line growth inhibition [RAS];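 also: spheroids exposed to agents for seven days before readout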
experimentalSetup: second compound 0.000949 µM; first compound 0.0316 µM; stronger effect = lower value
Examples of compounds with documented viability, T/C follow.
Response body: numeric value in %, unit text excluded.

// solved cases for viability, T/C follow
| compound | viability, T/C (%) |
| --- | --- |
| CC(C)n1nc(-c2ccc3oc(N)nc3c2)c2c(N)ncnc21 + CCn1c(-c2cc(N3CCN(C)CC3)cnc2C(C)OC)c2c3cc(ccc31)-c1csc(n1)CC(NC(=O)C1CC1C)C(=O)N1CCCC(N1)C(=O)OCC(C)(C)C2 | 16.9 |
| CCN1CCN(Cc2ccc(Nc3ncc(F)c(-c4cc(F)c5nc(C)n(C(C)C)c5c4)n3)nc2)CC1 + CCn1c(-c2cc(N3CCN(C)CC3)cnc2C(C)OC)c2c3cc(ccc31)-c1csc(n1)CC(NC(=O)C1CC1C)C(=O)N1CCCC(N1)C(=O)OCC(C)(C)C2 | 31.6 |

--- query ---
Problem: # viability, T/C lookup, item Cc1nc(N2CCC3(CC2)COC(C)C3N)c(CO)nc1Sc1ccnc(N)c1Cl (stereo not drawn) + CCn1c(-c2cccnc2C(C)OC)c2c3cc(ccc31)N1CCOC(CC(NC(=O)C(C(C)C)N(C)C(=O)C3(F)CCN(C(=O)C#CC(C)(C)N(C)C)CC3)C(=O)N3CCCC(N3)C(=O)OCC(C)(C)C2)C1
Solution: 94.1

###

Each record here notes measured viability, T/C.
Tested on: 485368-065-R3-J5-PDC spheroids with HUVEC/MSC, viability
testSummary: Anticancer human tumor 485368-065-R3-J5-PDC cell line growth inhibition [RAS];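 also: spheroids exposed to agents for seven days before readout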
experimentalSetup: second compound 0.3 µM; first compound 0.1 µM; stronger effect = lower value

| compound | viability, T/C |
| --- | --- |
| CC(Nc1ccc2c(c1)OCCn1cc(N3C(=O)OCC3C(F)F)nc1-2)C(N)=O (stereo not drawn) + CCn1c(-c2cc(N3CCN(C)CC3)cnc2C(C)OC)c2c3cc(ccc31)-c1csc(n1)CC(NC(=O)C1CC1C)C(=O)N1CCCC(N1)C(=O)OCC(C)(C)C2 | 6.98% |
| Cc1nc(N2CCC3(CC2)COC(C)C3N)c(CO)nc1Sc1ccnc(N)c1Cl (stereo not drawn) + CCn1c(-c2cc(N3CCN(C)CC3)cnc2C(C)OC)c2c3cc(ccc31)-c1csc(n1)CC(NC(=O)C1CC1C)C(=O)N1CCCC(N1)C(=O)OCC(C)(C)C2 | 6.81% |

Problem: I would be grateful if you could share the reported viability, T/C for NC1c2ccccc2OC12CCN(c1cnc3c(N4CCCc5ncccc54)n[nH]c3n1)CC2 (stereo not drawn) + CCn1c(-c2cccnc2C(C)OC)c2c3cc(ccc31)N1CCOC(CC(NC(=O)C(C(C)C)N(C)C(=O)C3(F)CCN(C(=O)C#CC(C)(C)N(C)C)CC3)C(=O)N3CCCC(N3)C(=O)OCC(C)(C)C2)C1 .
Solution: 86.1%

###

Reported pIC50 values follow for various molecules
Tested on: 485368-065-R3-J5-PDC spheroids with HUVEC/MSC, viability
testSummary: Anticancer human tumor 485368-065-R3-J5-PDC cell line growth inhibition [RAS];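 also: spheroids exposed to agents for seven days before readout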
experimentalSetup: curve of first compound; second compound 0.03 µM
pIC50: −log10 of the molar value.

Problem: Provide the documented pIC50 with 485368-065-R3-J5-PDC spheroids with HUVEC/MSC, viability as the system for CCc1c2c(nc3ccc(O)cc13)-c1cc3c(c(=O)n1C2)COC(=O)[C@]3(O)CC + CCn1c(-c2cccnc2C(C)OC)c2c3cc(ccc31)N1CCOC(CC(NC(=O)C(C(C)C)N(C)C(=O)C3(F)CCN(C(=O)C#CC(C)(C)N(C)C)CC3)C(=O)N3CCCC(N3)C(=O)OCC(C)(C)C2)C1
Solution: 8.64

Problem: Try this molecule too: CC(=O)OC12COC1CC(O)C1(C)C(=O)C(O)C3=C(C)C(OC(=O)C(O)C(NC(=O)OC(C)(C)C)c4ccccc4)CC(O)(C(OC(=O)c4ccccc4)C21)C3(C)C (configuration not stated) + CCn1c(-c2cc(N3CCN(C)CC3)cnc2C(C)OC)c2c3cc(ccc31)-c1csc(n1)CC(NC(=O)C1CC1C)C(=O)N1CCCC(N1)C(=O)OCC(C)(C)C2
Solution: > 7.50

Problem: Please give the result for Nc1ccn(C2OC(CO)C(O)C2(F)F)c(=O)n1 (configuration not stated) + CCn1c(-c2cccnc2C(C)OC)c2c3cc(ccc31)N1CCOC(CC(NC(=O)C(C(C)C)N(C)C(=O)C3(F)CCN(C(=O)C#CC(C)(C)N(C)C)CC3)C(=O)N3CCCC(N3)C(=O)OCC(C)(C)C2)C1 too.
Solution: 8.17

Problem: O=C(c1ccc(F)c(F)c1Nc1ccc(I)cc1F)N1CC(O)([C@@H]2CCCCN2)C1 + CCn1c(-c2cc(N3CCN(C)CC3)cnc2C(C)OC)c2c3cc(ccc31)-c1csc(n1)CC(NC(=O)C1CC1C)C(=O)N1CCCC(N1)C(=O)OCC(C)(C)C2 , same question.
Solution: > 8.50

Problem: Try the molecule CCC(CC)c1cc(NC2CCC(N)C2)n2nccc2n1 (configuration not stated) + CCn1c(-c2cc(N3CCN(C)CC3)cnc2C(C)OC)c2c3cc(ccc31)-c1csc(n1)CC(NC(=O)C1CC1C)C(=O)N1CCCC(N1)C(=O)OCC(C)(C)C2
Solution: > 7.50

Problem: For CC1(C)CCC(Nc2ncc(C(F)(F)F)c(-c3c[nH]c4c(P(C)(C)=O)c(C#N)ccc34)n2)CN1 (configuration not stated) + CCn1c(-c2cc(N3CCN(C)CC3)cnc2C(C)OC)c2c3cc(ccc31)-c1csc(n1)CC(NC(=O)C1CC1C)C(=O)N1CCCC(N1)C(=O)OCC(C)(C)C2 then?
Solution: > 9.02

Problem: Input C=CC(=O)Nc1cc(Nc2nccc(-c3cn(C)c4ccccc34)n2)c(OC)cc1N(C)CCN(C)C + CCn1c(-c2cccnc2C(C)OC)c2c3cc(ccc31)N1CCOC(CC(NC(=O)C(C(C)C)N(C)C(=O)C3(F)CCN(C(=O)C#CC(C)(C)N(C)C)CC3)C(=O)N3CCCC(N3)C(=O)OCC(C)(C)C2)C1
Solution: < 6.00

###

Test system: 485368-065-R3-J5-PDC spheroids with HUVEC/MSC, viability
testSummary: Anticancer human tumor 485368-065-R3-J5-PDC cell line growth inhibition [RAS];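 also: spheroids exposed to agents for seven days before readout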
experimentalSetup: second compound 0.1 µM; first compound 0.3 µM; stronger effect = lower value
recordedEndpoint: viability, T/C (%)
I only need the number, in %, no unit after it.

| molecule | measuredValue |
| --- | --- |
| CCc1c2c(nc3ccc(O)cc13)-c1cc3c(c(=O)n1C2)COC(=O)[C@]3(O)CC + C#Cc1c(F)ccc2cc(O)cc(-c3ncc4c(N5CC6CCC(C5)N6)nc(OCC56CCCN5CC(F)C6)nc4c3F)c12 | 3.26 |
| CC1(C)CCC(Nc2ncc(C(F)(F)F)c(-c3c[nH]c4c(P(C)(C)=O)c(C#N)ccc34)n2)CN1 (stereo not drawn) + C=CC(=O)N1CCN(c2nc(OCC3CCCN3C)nc3c(F)c(-c4nc(N)cc(C)c4C(F)(F)F)c(Cl)cc23)C(C)C1 | 34.3 |

Problem: Looking for the measured viability, T/C of CCc1c2c(nc3ccc(O)cc13)-c1cc3c(c(=O)n1C2)COC(=O)[C@]3(O)CC + C=CC(=O)N1CCN(c2nc(OCC3CCCN3C)nc3c(F)c(-c4nc(N)cc(C)c4C(F)(F)F)c(Cl)cc23)C(C)C1 , can you help?
Solution: 3.35
